target_desc: c-Src enzyme (Homo sapiens)
Sequence (P12931 whole entry): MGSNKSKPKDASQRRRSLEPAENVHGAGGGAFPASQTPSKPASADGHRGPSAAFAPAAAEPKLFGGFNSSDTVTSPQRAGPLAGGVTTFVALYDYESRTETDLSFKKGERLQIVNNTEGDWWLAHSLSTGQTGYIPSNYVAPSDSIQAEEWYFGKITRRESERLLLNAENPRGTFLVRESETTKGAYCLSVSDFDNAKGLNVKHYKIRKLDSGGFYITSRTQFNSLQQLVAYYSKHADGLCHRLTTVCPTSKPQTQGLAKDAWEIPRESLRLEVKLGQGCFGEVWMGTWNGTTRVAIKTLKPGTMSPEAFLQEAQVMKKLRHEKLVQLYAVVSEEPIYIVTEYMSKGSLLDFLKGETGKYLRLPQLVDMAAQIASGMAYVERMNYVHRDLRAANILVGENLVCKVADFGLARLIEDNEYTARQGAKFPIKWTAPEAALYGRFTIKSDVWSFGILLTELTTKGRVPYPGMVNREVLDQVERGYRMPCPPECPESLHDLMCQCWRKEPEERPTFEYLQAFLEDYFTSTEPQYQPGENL
measurement_description: c-Src enzyme assay (Z'-LYTE FRET)
Type: biochemical
test_settings: ATP 200 μM
# Lookup of reported IC50 keyed by entry
readout_type: IC50 (nM)

{"molecule": "COCC(=O)Nc1cc(COc2ccc(NC(=O)Nc3cc(C(C)(C)C)nn3-c3ccc(CO)cc3)c3ccccc23)ccn1", "target_desc": "c-Src enzyme (Homo sapiens)", "readout_type": "IC50", "censoring_sign": "=", "value_measured": 155}
{"molecule": "Cc1ccc(-n2nc(C(C)(C)C)cc2NC(=O)Nc2ccc(OCc3ccnc(NC(=O)C[S+](C)[O-])c3)c3ccccc23)cc1 (stereo not shown)", "target_desc": "c-Src enzyme (Homo sapiens)", "readout_type": "IC50", "censoring_sign": "=", "value_measured": 161}
{"molecule": "Cc1ccc(-n2nc(C(C)(C)C)cc2NC(=O)Nc2ccc(OCc3ccnc(NC(=O)CS(=O)(=O)CCN4CCOCC4)c3)c3ccccc23)cc1", "target_desc": "c-Src enzyme (Homo sapiens)", "readout_type": "IC50", "censoring_sign": "=", "value_measured": 111}
{"molecule": "COCCOCC(=O)Nc1cnccc1COc1ccc(NC(=O)Nc2cc(C(C)(C)C)nn2-c2ccc(C)cc2)c2ccccc12", "target_desc": "c-Src enzyme (Homo sapiens)", "readout_type": "IC50", "censoring_sign": "=", "value_measured": 9330}
{"molecule": "Cc1ccc(-n2nc(C(C)(C)C)cc2NC(=O)Nc2ccc(OCc3ccnc(NC(=O)CCS(C)(=O)=O)c3)c3ccccc23)cc1", "target_desc": "c-Src enzyme (Homo sapiens)", "readout_type": "IC50", "censoring_sign": "=", "value_measured": 149}
{"molecule": "COCCNC(=O)CNC(=O)Nc1cc(COc2ccc(NC(=O)Nc3cc(C(C)(C)C)nn3-c3ccc(C)cc3)c3ccccc23)ccn1", "target_desc": "c-Src enzyme (Homo sapiens)", "readout_type": "IC50", "censoring_sign": "=", "value_measured": 28}
{"molecule": "CNC(=O)Nc1cc(COc2ccc(NC(=O)Nc3cc(C(C)(C)C)nn3-c3ccc(C)cc3)c3ccccc23)ccn1", "target_desc": "c-Src enzyme (Homo sapiens)", "readout_type": "IC50", "censoring_sign": "=", "value_measured": 45}
{"molecule": "CNC(=O)Nc1cnccc1COc1ccc(NC(=O)Nc2cc(C(C)(C)C)nn2-c2ccc(C)cc2)c2ccccc12", "target_desc": "c-Src enzyme (Homo sapiens)", "readout_type": "IC50", "censoring_sign": ">", "value_measured": 17300}
{"molecule": "Cc1ccc(-n2nc(C(C)(C)C)cc2NC(=O)Nc2ccc(OCCc3ccnc(NC(N)=O)c3)c3ccccc23)cc1", "target_desc": "c-Src enzyme (Homo sapiens)", "readout_type": "IC50", "censoring_sign": ">", "value_measured": 17300}
{"molecule": "Cc1ccc(-n2nc(C(C)(C)C)cc2NC(=O)Nc2ccc(OCc3ccnc(NC(=O)CCCN(C)C)c3)c3ccccc23)cc1", "target_desc": "c-Src enzyme (Homo sapiens)", "readout_type": "IC50", "censoring_sign": "=", "value_measured": 28}
